target-entity: Δ49N-hChoKα (Homo sapiens)
Construct: cDNA fragment 362-1534, corresponding to aminoacids 50-457; GST (N, cleaved yes); Prescission Protease recognition site (N, cleaved yes); made in house; host or cells: Escherichia coli BL21pLysS (DE3)
Sequence (P35790 50-457, stated change not applied): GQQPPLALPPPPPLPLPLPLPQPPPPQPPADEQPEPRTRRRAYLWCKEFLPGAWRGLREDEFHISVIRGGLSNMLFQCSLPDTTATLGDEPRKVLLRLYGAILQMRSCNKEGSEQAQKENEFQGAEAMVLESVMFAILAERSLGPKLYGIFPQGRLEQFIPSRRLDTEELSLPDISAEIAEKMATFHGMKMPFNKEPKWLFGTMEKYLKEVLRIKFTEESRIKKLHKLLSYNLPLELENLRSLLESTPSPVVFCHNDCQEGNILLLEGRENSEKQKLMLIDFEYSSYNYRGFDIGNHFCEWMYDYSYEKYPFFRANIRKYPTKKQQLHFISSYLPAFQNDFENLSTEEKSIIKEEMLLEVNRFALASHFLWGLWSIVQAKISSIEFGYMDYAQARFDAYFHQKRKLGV
test-description: Biochemical kinase inhibition assay (Kinase-Glo Luminescent Kinase Assay) on Δ49N-hChoKα
experimental-setup: ATP 5 μM, choline 5 μM, 60 minutes at rt; read-out: IC50 ChoKα
Each entry below carries its reported IC50.
quantity-measured: IC50 (µM)

smiles-entry	target-entity	measurement
COC(=O)Cc1ccc2nc(NC(=O)[C@H]3CC[C@@H](n4cnc5c(N)nc(Cl)nc54)CC3)sc2c1	Δ49N-hChoKα (Homo sapiens)	0.041
COc1cccc(NC(=O)[C@H]2CC[C@@H](n3cnc4c(N)nc(OC)nc43)CC2)c1	Δ49N-hChoKα (Homo sapiens)	0.425
Nc1nc(Cl)nc2c1ncn2[C@H]1CC[C@@H](C(=O)Nc2nc3ccc(OC(F)(F)F)cc3s2)CC1	Δ49N-hChoKα (Homo sapiens)	0.066
Cn1c(NC(=O)[C@H]2CC[C@@H](n3cnc4c(N)nc(Cl)nc43)CC2)nc2ccccc21	Δ49N-hChoKα (Homo sapiens)	0.268
COc1cccc(NC(=O)[C@H]2CC[C@@H](n3cnc4c(N)nc(-c5ccnc(F)c5)nc43)CC2)c1	Δ49N-hChoKα (Homo sapiens)	0.419
Nc1nc(Cl)nc2c1ncn2[C@H]1CC[C@@H](C(=O)Nc2nc(CN3CCC(N)CC3)cs2)CC1	Δ49N-hChoKα (Homo sapiens)	0.04
Nc1nc(Cl)nc2c1ncn2[C@H]1CC[C@@H](C(=O)Nc2nnc(C(F)(F)F)s2)CC1	Δ49N-hChoKα (Homo sapiens)	0.196
Nc1nc(Cl)nc2c1ncn2[C@H]1CC[C@@H](C(=O)Nc2nc3cc(F)c(F)cc3s2)CC1	Δ49N-hChoKα (Homo sapiens)	0.045

###

target-entity: hChoKβ FL (Homo sapiens, UniProt Q9Y259)
Construct: hChoKβ full length (FL), corresponding to aminoacids 2-395; GST (N, cleaved yes); Prescission Protease recognition site (N, cleaved yes)
Sequence (Q9Y259 2-395): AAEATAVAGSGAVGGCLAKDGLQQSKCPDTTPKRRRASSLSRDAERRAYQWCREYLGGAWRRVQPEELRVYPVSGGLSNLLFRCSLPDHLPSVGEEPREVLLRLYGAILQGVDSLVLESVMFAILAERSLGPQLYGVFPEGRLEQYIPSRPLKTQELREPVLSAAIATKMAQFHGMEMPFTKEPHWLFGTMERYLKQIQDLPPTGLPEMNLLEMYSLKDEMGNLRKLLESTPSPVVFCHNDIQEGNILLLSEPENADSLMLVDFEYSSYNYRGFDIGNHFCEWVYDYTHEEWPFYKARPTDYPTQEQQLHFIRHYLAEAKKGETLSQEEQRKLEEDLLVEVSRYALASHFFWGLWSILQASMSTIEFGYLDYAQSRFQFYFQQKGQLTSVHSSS
test-description: Biochemical kinase inhibition assay (Kinase-Glo Luminescent Kinase Assay) on hChoKβ FL
experimental-setup: ATP 5 μM, choline 20 μM, 60 minutes at rt; read-out: IC50 ChoKβ
pIC50: −log10 of the molar value.

smiles-entry	target-entity	pIC50
Nc1nc(Cl)nc2c1ncn2[C@H]1CC[C@@H](C(=O)Nc2ncc(Cl)s2)CC1	hChoKβ FL (Homo sapiens, UniProt Q9Y259)	5.33
CC1(C)Cc2nc(NC(=O)[C@H]3CC[C@@H](n4cnc5c(N)nc(F)nc54)CC3)sc2C(C)(C)N1	hChoKβ FL (Homo sapiens, UniProt Q9Y259)	< 5.00
COc1cccc(NC(=O)[C@H]2CC[C@@H](n3cnc4c(N)nc(C#CCO)nc43)CC2)c1	hChoKβ FL (Homo sapiens, UniProt Q9Y259)	< 5.00
Cc1csc(NC(=O)[C@H]2CC[C@@H](n3cnc4c(N)nc(-c5cccc(OCc6ccccc6)c5)nc43)CC2)n1	hChoKβ FL (Homo sapiens, UniProt Q9Y259)	< 5.00

###

target-entity: hChoKβ FL (Homo sapiens)
Construct: hChoKβ full length (FL), corresponding to aminoacids 2-395; GST (N, cleaved yes); Prescission Protease recognition site (N, cleaved yes)
test-description: Biochemical kinase inhibition assay (Kinase-Glo Luminescent Kinase Assay) on hChoKβ FL
experimental-setup: ATP 5 μM, choline 20 μM, 60 minutes at rt; read-out: IC50 ChoKβ

molecule	value-qualifier	IC50, µM
COC(=O)[C@H]1CC[C@@H](n2cnc3c(N)nc(Cl)nc32)CC1 [cpd 88]	>	10
Cc1cc2nc(NC(=O)[C@H]3CC[C@@H](n4cnc5c(N)nc(Cl)nc54)CC3)sc2cc1C [cpd 93]	=	6.08
Nc1nc(Cl)nc2c1ncn2[C@H]1CC[C@@H](C(=O)Nc2nc3cc(Cl)ccc3o2)CC1 [cpd 94]	=	5.62
Cc1csc(NC(=O)[C@H]2CC[C@@H](n3cnc4c(N)nc(C#N)nc43)CC2)n1 [cpd 102]	>	10
